The reported measurements were obtained from paper PMC12106615.

Experiment: Population pharmacokinetic (PPK) model of colistin sulfate, NONMEM, two-compartment with first-order elimination
Assay type: in vivo, human
Settings: human, plasma; 178 critically ill patients, 364 concentrations, intravenous; CrCL as covariate; read-out: tvCL, typical value of central compartment clearance, final model estimate (converted)
Counter-ions that a name gives are not always drawn. Bridge positions count the residues as written; N and C are the ends. Square brackets hold non-standard residues; d marks the D form. Peptide text beside a SMILES is read from it. * marks the point of attachment. X1 = CC[C@H](C)CCCCC(=O)*; Dab = NCC[C@H](N)C(=O)O
quantity_name: clearance

// query clearance value for entry CC[C@H](C)CCCCC(=O)N[C@@H](CCN)C(=O)N[C@H](C(=O)N[C@@H](CCN)C(=O)N[C@H]1CCNC(=O)[C@H]([C@@H](C)O)NC(=O)[C@H](CCN)NC(=O)[C@H](CCN)NC(=O)[C@H](CC(C)C)NC(=O)[C@@H](CC(C)C)NC(=O)[C@H](CCN)NC1=O)[C@@H](C)O [colistin sulfate] (X1-[Dab]T[Dab][Dab][Dab][dL]L[Dab][Dab]T; lactam 4-C)
44.3 mL/min
